Some binders, each annotated with its measured Kd.
Target Desc: T1, human Angiopoietin-2 (human, UniProt O15123 19-496)
T1 construct: Mostly bought recombinant protein (R&D Systems 623-AM/CF, 623-AN; biotinylated BT623) or supernatant of transfected 293F cells; also called Ang-2; rhAng-2
T1 sequence: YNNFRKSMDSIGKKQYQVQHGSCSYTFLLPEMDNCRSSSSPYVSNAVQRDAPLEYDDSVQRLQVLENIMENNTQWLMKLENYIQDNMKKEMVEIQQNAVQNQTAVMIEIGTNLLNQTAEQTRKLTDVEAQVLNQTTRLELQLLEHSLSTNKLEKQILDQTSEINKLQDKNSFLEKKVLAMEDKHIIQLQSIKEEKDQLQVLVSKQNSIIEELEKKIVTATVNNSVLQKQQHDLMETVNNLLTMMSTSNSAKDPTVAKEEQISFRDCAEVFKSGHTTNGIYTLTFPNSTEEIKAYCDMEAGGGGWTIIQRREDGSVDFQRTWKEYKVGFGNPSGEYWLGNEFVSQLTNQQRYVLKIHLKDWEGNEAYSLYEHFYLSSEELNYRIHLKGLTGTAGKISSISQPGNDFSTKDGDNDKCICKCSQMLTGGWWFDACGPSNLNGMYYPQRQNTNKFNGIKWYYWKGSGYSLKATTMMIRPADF
Assay Procedure: Biacore, mAb captured

Binder	Kd
mAb 5.52.1 (antibody, V domains shown, Human hybridoma IgG (XenoMouse); the line 5.52 has entries of its own (347, 349; light chain L2) that differ from the clone 5.52.1 (L5); also called x5.52) VH: QVQLVESGGGVVQPGRSLRLSCAASGFTFSSYGMHWVRQAPGKGLEWVAVRWYDESNKYYADSVKGRFTISRDNSKNTLYLQMNSLRAEDTAVYYCARDPFETGTTFDYWGQGTLVTVSS VL: DIQMTQSPSSVSASVGDRVTITCRASQGISSWLAWYQQKPGKAPKLLIYAVSSLESGVPSRFSGSGSGTDFTLTISSLQPEDFATYYCQQALTFGGGTKVEIKR	≤ 0.75 nM
mAb 5.28.1 (antibody, V domains shown, Human hybridoma IgG (XenoMouse); also called x5.28) VH: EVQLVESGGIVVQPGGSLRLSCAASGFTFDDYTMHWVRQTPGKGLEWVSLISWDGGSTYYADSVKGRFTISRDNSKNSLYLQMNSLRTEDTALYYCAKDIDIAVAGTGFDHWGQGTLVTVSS VL: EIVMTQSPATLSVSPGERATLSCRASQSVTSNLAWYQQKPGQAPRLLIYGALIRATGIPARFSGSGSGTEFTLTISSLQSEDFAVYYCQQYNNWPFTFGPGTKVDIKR	≤ 0.04 nM
mAb 3.31.2 (antibody, V domains shown, Human hybridoma IgG (XenoMouse); also called x3.31) VH: EVQLVESGGGLVQPGGSLRLSCAASGFTFSSYWMSWVRQAPGKGLEWVANIKQDGSDKYYVDSVKGRFTISRDNAKNSLYLRMNSLRAEDTAVFYCARDMGSGWFDYWGQGTLVTVSS VL: EVVMTQSPATLSVSPGERATLSCRASQSVGSNLAWYQQKPGQAPRLLIYGASTRATGIPARFSGSGSGTEFTLTISSLQSEDFAVYCCQQYNHWWTFGQGTKVEIKR	≤ 0.051 nM
